- protocol_text: total protein half-life in vivo (active degradation + dilution); higher = more stable protein
- condition_label: E. coli NCM3722 delta-lon; growth: N-lim chemostat; doubling time 6 h
metric_name: total protein half-life in vivo (h)
One number for each entry, in h.

Before answering, review these 5 worked examples.
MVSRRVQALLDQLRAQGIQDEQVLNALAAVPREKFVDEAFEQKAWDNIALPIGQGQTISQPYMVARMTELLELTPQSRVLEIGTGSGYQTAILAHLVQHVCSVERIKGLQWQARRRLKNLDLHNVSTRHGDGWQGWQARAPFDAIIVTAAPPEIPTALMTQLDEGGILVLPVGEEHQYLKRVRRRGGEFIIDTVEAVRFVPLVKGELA [P0A7A5] = 4.71
MILFVGFLLMEIVMPQISRTALVPYSAEQMYQLVNDVQSYPQFLPGCTGSRILESTPGQMTAAVDVSKAGISKTFTTRNQLTSNQSILMNLVDGPFKKLIGGWKFTPLSQEACRIEFHLDFEFTNKLIELAFGRVFKELAANMVQAFTVRAKEVYSAR [P0AGL5] = 0.962
MQLNITGNNVEITEALREFVTAKFAKLEQYFDRINQVYVVLKVEKVTHTSDATLHVNGGEIHASAEGQDMYAAIDGLIDKLARQLTKHKDKLKQH [P0AFX0] = 4.08
MNYRIIPVTAFSQNCSLIWCEQTRLAALVDPGGDAEKIKQEVDDSGLTLMQILLTHGHLDHVGAAAELAQHYGVPVFGPEKEDEFWLQGLPAQSRMFGLEECQPLTPDRWLNEGDTISIGNVTLQVLHCPGHTPGHVVFFDDRAKLLISGDVIFKGGVGRSDFPRGDHNQLISSIKDKLLPLGDDVIFIPGHGPLSTLGYERLHNPFLQDEMPVW = 4.23
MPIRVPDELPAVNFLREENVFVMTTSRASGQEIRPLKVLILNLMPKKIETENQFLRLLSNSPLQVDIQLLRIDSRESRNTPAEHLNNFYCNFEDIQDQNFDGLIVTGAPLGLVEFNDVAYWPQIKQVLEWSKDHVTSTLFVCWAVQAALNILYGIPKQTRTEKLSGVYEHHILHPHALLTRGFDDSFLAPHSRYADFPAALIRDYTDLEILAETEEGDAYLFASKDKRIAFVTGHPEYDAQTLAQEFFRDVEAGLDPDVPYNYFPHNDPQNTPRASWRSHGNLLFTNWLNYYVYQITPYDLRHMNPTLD = 1.87

Batch request: total protein half-life in vivo per item, same order as input.
1. MAIILGIDPGSRVTGYGVIRQVGRQLSYLGSGCIRTKVDDLPSRLKLIYAGVTEIITQFQPDYFAIEQVFMAKNADSALKLGQARGVAIVAAVNQELPVFEYAARQVKQTVVGIGSAEKSQVQHMVRTLLKLPANPQADAADALAIAITHCHVSQNAMQMSESRLNLARGRLR [P0A814]
2. MQKFDTRTFQGLILTLQDYWARQGCTIVQPLDMEVGAGTSHPMTCLRELGPEPMAAAYVQPSRRPTDGRYGENPNRLQHYYQFQVVIKPSPDNIQELYLGSLKELGMDPTIHDIRFVEDNWENPTLGAWGLGWEVWLNGMEVTQFTYFQQVGGLECKPVTGEITYGLERLAMYIQGVDSVYDLVWSDGPLGKTTYGDVFHQNEVEQSTYNFEYADVDFLFTCFEQYEKEAQQLLALENPLPLPAYERILKAAHSFNLLDARKAISVTERQRYILRIRTLTKAVAEAYYASREALGFPMCNKDK

[reply]
1. 3.46
2. 6.54

----------
- protocol_text: total protein half-life in vivo (active degradation + dilution); higher = more stable protein
- condition_label: wild type E. coli NCM3722; growth: P-lim chemostat; doubling time 6 h
Provide the recorded total protein half-life in vivo for the entries that follow.
One number for each entry, in h.

Before answering, review these 2 worked examples.
MKSRAAVAFAPGKPLEIVEIDVAPPKKGEVLIKVTHTGVCHTDAFTLSGDDPEGVFPVVLGHEGAGVVVEVGEGVTSVKPGDHVIPLYTAECGECEFCRSGKTNLCVAVRETQGKGLMPDGTTRFSYNGQPLYHYMGCSTFSEYTVVAEVSLAKINPEANHEHVCLLGCGVTTGIGAVHNTAKVQPGDSVAVFGLGAIGLAVVQGARQAKAGRIIAIDTNPKKFDLARRFGATDCINPNDYDKPIKDVLLDINKWGIDHTFECIGNVNVMRAALESAHRGWGQSVIIGVAVAGQEISTRPFQLVTGRVWKGSAFGGVKGRSQLPGMVEDAMKGDIDLEPFVTHTMSLDEINDAFDLMHEGKSIRTVIRY = 5.6
MFQQQKDWETRENAFAAFTMGPLTDFWRQRDEAEFTGVDDIPVRFVRFRAQHHDRVVVICPGRIESYVKYAELAYDLFHLGFDVLIIDHRGQGRSGRLLADPHLGHVNRFNDYVDDLAAFWQQEVQPGPWRKRYILAHSMGGAISTLFLQRHPGVCDAIALTAPMFGIVIRMPSFMARQILNWAEAHPRFRDGYAIGTGRWRALPFAINVLTHSRQRYRRNLRFYADDPTIRVGGPTYHWVRESILAGEQVLAGAGDDATPTLLLQAEEERVVDNRMHDRFCELRTAAGHPVEGGRPLVIKGAYHEILFEKDAMRSVALHAIVDFFNRHNSPSGNRSTEV = 6.17

Moving on to another sequence below.
Form field total protein half-life in vivo, entry MKKLTVAALAVTTLLSGSAFAHEAGEFFMRAGSATVRPTEGAGGTLGSLGGFSVTNNTQLGLTFTYMATDNIGVELLAATPFRHKIGTRATGDIATVHHLPPTLMAQWYFGDASSKFRPYVGAGINYTTFFDNGFNDHGKEAGLSDLSLKDSWGAAGQVGVDYLINRDWLVNMSVWYMDIDTTANYKLGGAQQHDSVRLDPWVFMFSAGYRF [P0A915] : 6.15

----------
- protocol_text: total protein half-life in vivo (active degradation + dilution); higher = more stable protein
- condition_label: E. coli NCM3722 delta-lon; growth: N-lim chemostat; doubling time 6 h
metric_name: total protein half-life in vivo (h)
One number for each entry, in h.

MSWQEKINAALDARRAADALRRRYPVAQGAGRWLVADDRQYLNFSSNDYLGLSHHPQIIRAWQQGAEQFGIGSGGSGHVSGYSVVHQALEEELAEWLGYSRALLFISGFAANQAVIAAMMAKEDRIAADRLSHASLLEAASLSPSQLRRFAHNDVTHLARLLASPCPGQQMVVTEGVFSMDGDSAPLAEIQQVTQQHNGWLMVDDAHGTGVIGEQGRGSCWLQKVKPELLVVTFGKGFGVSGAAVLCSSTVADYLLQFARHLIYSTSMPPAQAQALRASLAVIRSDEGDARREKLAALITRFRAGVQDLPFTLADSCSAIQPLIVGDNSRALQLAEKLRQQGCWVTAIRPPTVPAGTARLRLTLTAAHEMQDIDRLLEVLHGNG = 3.88

Form field total protein half-life in vivo, entry MKIAILSRDGTLYSCKRLREAAIQRGHLVEILDPLSCYMNINPAASSIHYKGRKLPHFDAVIPRIGTAITFYGTAALRQFEMLGSYPLNESVAIARARDKLRSMQLLARQGIDLPVTGIAHSPDDTSDLIDMVGGAPLVVKLVEGTQGIGVVLAETRQAAESVIDAFRGLNAHILVQEYIKEAQGCDIRCLVVGDEVVAAIERRAKEGDFRSNLHRGGAASVASITPQEREIAIKAARTMALDVAGVDILRANRGPLVMEVNASPGLEGIEKTTGIDIAGKMIRWIERHATTEYCLKTGG [P0C0U4] : 4.31

----------
- protocol_text: total protein half-life in vivo (active degradation + dilution); higher = more stable protein
- condition_label: E. coli NCM3722 delta-clpP; growth: N-lim chemostat; doubling time 6 h
metric_name: total protein half-life in vivo

Form field total protein half-life in vivo, entry MIEKIWSGESPLWRLLLPLSWLYGLVSGAIRLCYKLKLKRAWRAPVPVVVVGNLTAGGNGKTPVVVWLVEQLQQRGIRVGVVSRGYGGKAESYPLLLSADTTTAQAGDEPVLIYQRTDAPVAVSPVRSDAVKAILAQHPDVQIIVTDDGLQHYRLARDVEIVVIDGVRRFGNGWWLPAGPMRERAGRLKSVDAVIVNGGVPRSGEIPMHLLPGQAVNLRTGTRCDVAQLEHVVAMAGIGHPPRFFATLKMCGVQPEKCVPLADHQSLNHADVSALVSAGQTLVMTEKDAVKCRAFAEENWWYLPVDAQLSGDEPAKLLTQLTLLASGN : 6.49 h

----------
- protocol_text: total protein half-life in vivo (active degradation + dilution); higher = more stable protein
- condition_label: wild type E. coli NCM3722; growth: N-lim chemostat; doubling time 6 h
metric_name: total protein half-life in vivo (h)
One number for each entry, in h.

MSVRLVLAKGREKSLLRRHPWVFSGAVARMEGKASLGETIDIVDHQGKWLARGAYSPASQIRARVWTFDPSESIDIAFFSRRLQQAQKWRDWLAQKDGLDSYRLIAGESDGLPGITIDRFGNFLVLQLLSAGAEYQRAALISALQTLYPECSIYDRSDVAVRKKEGMELTQGPVTGELPPALLPIEEHGMKLLVDIQHGHKTGYYLDQRDSRLATRRYVENKRVLNCFSYTGGFAVSALMGGCSQVVSVDTSQEALDIARQNVELNKLDLSKAEFVRDDVFKLLRTYRDRGEKFDVIVMDPPKFVENKSQLMGACRGYKDINMLAIQLLNEGGILLTFSCSGLMTSDLFQKIIADAAIDAGRDVQFIEQFRQAADHPVIATYPEGLYLKGFACRVM = 6.03

Moving on to another sequence below.
Form field total protein half-life in vivo, entry MKQLWFAMSLVTGSLLFSANASATPASGALLQQMNLASQSLNYELSFISINKQGVESLRYRHARLDNRPLAQLLQMDGPRREVVQRGNEISYFEPGLEPFTLNGDYIVDSLPSLIYTDFKRLSPYYDFISVGRTRIADRLCEVIRVVARDGTRYSYIVWMDTESKLPMRVDLLDRDGETLEQFRVIAFNVNQDISSSMQTLAKANLPPLLSVPVGEKAKFSWTPTWLPQGFSEVSSSRRPLPTMDNMPIESRLYSDGLFSFSVNVNRATPSSTDQMLRTGRRTVSTSVRDNAEITIVGELPPQTAKRIAENIKFGAAQ [P0AFX9] : 6.73
